# system: T1, FoxM1-DBD (FoxM1C 222-360) (UniProt Q08050 222-360)
# T1 sequence: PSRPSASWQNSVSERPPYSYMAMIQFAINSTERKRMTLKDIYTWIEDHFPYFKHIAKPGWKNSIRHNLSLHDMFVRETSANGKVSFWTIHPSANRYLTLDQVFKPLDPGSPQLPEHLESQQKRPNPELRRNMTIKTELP
# experimental details: fluorescence anisotropy
assay endpoint: Kd (µM)

{"binder": "11 bp consensus, TAMRA (dsDNA) DNA 1: CCATAAACAAC DNA 2: GTTGTTTATGG", "reading": 7}
